- protocol_details: in vitro
- Assay type: cell-based
- experimental_conditions: human, HCV replicon cells, FIG. 9; read-out: cytotoxicity CC50
assay_readout: CC50

GET /value?item= CCCCCCCC(=O)CCCCCC/C=C/[C@H](C(=O)N[C@@H](Cc1ccc(OCC=C(C)C)cc1)C(=O)O)[C@@](O)(CC(=O)O)C(=O)O [Compound (40)] &field=CC50 returns > 50 nM

====

- protocol_details: in vitro
- Format: cell-based
- experimental_conditions: human, Huh-3-1 replicon cells, three days, Cell Counting Kit-8; read-out: Cytotoxicity CC50
assay_readout: CC50

The value of CC50 measured for the compound CCCCCCCC(=O)CCCCCC/C=C/[C@H](C(=O)N[C@@H](Cc1c[nH]c2ccccc12)C(=O)O)[C@@](O)(CC(=O)O)C(=O)O [(44)] turned out to be > 1000 nM

The reported CC50 of the compound CCCCCCCC(=O)CCCCCCCC[C@H](C(=O)N[C@@H](Cc1ccc(O)cc1)C(=O)O)[C@@](O)(CC(=O)O)C(=O)O [Compound (49)] was > 50000 nM

Item: CCCCCCC(O)C(=O)CCCCCC/C=C/[C@H](C(=O)N[C@@H](Cc1ccc(O)cc1)C(=O)O)[C@@](O)(CC(=O)O)C(=O)O (stereo partly drawn) [(43)] | CC50: > 1000 nM

Per the records, this compound ( CCCCCCCC(=O)CCCCCC/C=C/[C@H](C(=O)N[C@@H](Cc1ccc(OCC=C(C)C)cc1)C(=O)O)[C@@](O)(CC(=O)OC)C(=O)O [(41)] ) has CC50 equal to > 1000 nM

CCCCCCCC(=O)CCCCCC/C=C/[C@H](C(=O)N[C@@H](Cc1ccc(OCCCC)cc1)C(=O)O)[C@@](O)(CC(=O)O)C(=O)O [(26)] yielded CC50 of > 1000 nM

The value of CC50 measured for the compound CCCCCCC(O)C(=O)CCCCCC/C=C/[C@H](C(=O)N[C@@H](Cc1ccc(OCC=C(C)C)cc1)C(=O)O)[C@@](O)(CC(=O)O)C(=O)O (stereo partly drawn) [(45)] turned out to be > 1000 nM

Origin of measurements: patent US8183005B1
